Field: GI50. Provide a value for each of the compounds that follow.
Tested on: SR
Test: NCI tumour cell line growth inhibition, 48 h
Activity calls are given as the source filed them. Rule as the data show it: active = GI50 up to about 1.1 µM and inactive = higher.

Log: SR, compound Cc1cccc(C)c1NC(=O)C(=O)C(C#N)c1ccccc1Cl (centres undefined) , GI50 = > 100000 nM (inactive)

Log: SR, compound CCCCCCCCCCCCCCCCP(=O)(O)OCC(N)C(=O)O (centres undefined) , GI50 = 13700 nM (inactive)

Log: SR, compound CN(C)CCCNC(=O)c1c(-c2cccnc2)cnc2ccccc12 , GI50 = > 100000 nM (inactive)

Log: SR, compound COc1c2c3c4c(c(OC)c(=O)c5c(O)cc(OC)c(c6c(OC)cc(O)c(c1=O)c63)c54)C(C(C)O)C2C(C)O (centres undefined) , GI50 = 1310 nM (inactive)

Log: SR, compound CN(C)N1C(=O)SCC(c2ccccc2)(c2ccccc2)C1=O , GI50 = > 100000 nM (inactive)

Log: SR, compound COc1cc2cc(C(=O)N3CC(COS(C)(=O)=O)c4ccc(O)cc43)[nH]c2c(OC)c1OC (centres undefined) , GI50 = < 0.1 nM (active)

Log: SR, compound CC[C@@]1(O)C(=O)OCc2c1cc1n(c2=O)Cc2c-1nc1ccccc1c2/C=N\NC(=O)C(N)Cc1c[nH]cn1 (some centres undefined) , GI50 = 10.1 nM (active)

Log: SR, compound O=C1c2sccc2C(=O)c2c(CO)csc21 , GI50 = 3420 nM (inactive)

Log: SR, compound COc1cc([C@@H]2c3cc4c(cc3C[C@H]3COC(=O)[C@@H]32)OCO4)cc2c1OCO2 [AUSTROBAILIGNAN 1] , GI50 = < 10 nM (active)

Log: SR, compound C1OC1C1CO1 (centres undefined) , GI50 = 3880 nM (inactive)

Log: SR, compound CN1CCC(c2c(O)cc(O)c3c(=O)cc(-c4ccccc4Cl)oc23)C(O)C1 (centres undefined) , GI50 = 24.7 nM (active)

Log: SR, compound O=[N+]([O-])c1ccc2nc(/C(=N/Nc3ccccc3)C(O)c3ccco3)c(O)nc2c1 (centres undefined) , GI50 = 55200 nM (inactive)

Log: SR, compound O[C@H]1[C@H]2c3cc4c(cc3CN3CCC(=C[C@@H]1O)[C@H]23)OCO4 [LYCORINE] , GI50 = 1470 nM (inactive)

Log: SR, compound COC(=O)/C=C(/OC)[C@H](C)[C@H](/C=C/c1csc(-c2csc(C(C)C)n2)n1)OC , GI50 = 92.9 nM (active)

###

Test system: Hs-578T
Assay: NCI tumour cell line growth inhibition, 48 h
Structures can show the parent of a compound that is named as a salt. Calls of active or inactive are those of the source. No stated cut-off is given here; in the data, active = GI50 up to about 1.1 µM and inactive = higher.
Hello, when you answer, please use one of the following outcomes: active, inactive

Could you kindly confirm the outcome this assay logged for NCCCn1c(Cl)nc2ccccc21 ?
inactive

Could you kindly confirm the outcome this assay logged for N=c1ccn2c(n1)O[C@H]1[C@H](O)[C@@H](CO)O[C@H]12 [ANCITABINE HYDROCHLORIDE] ?
inactive

Could you kindly confirm the outcome this assay logged for COc1cccc2c1OC1(C=C2)Oc2ccccc2C(=O)N1C (stereo not drawn) ?
inactive

Could you kindly confirm the outcome this assay logged for CC(C)/C(Cl)=N\OC(=O)NNc1ccccc1 ?
inactive

Could you kindly confirm the outcome this assay logged for CNC(=S)N/N=C(/C)CCC/C(C)=N/NC(=S)NC ?
inactive

Could you kindly confirm the outcome this assay logged for CCOC(=O)Oc1ccc2c(c1)c(=O)c1c(NCCCN(CC)CC)ccc3nnn2c31 ?
inactive

Could you kindly confirm the outcome this assay logged for NC(=O)c1ncn(C2CCC(CP(=O)(O)O)C2)c1N (stereo not drawn) ?
inactive

Could you kindly confirm the outcome this assay logged for O=C(O)CN1CCN(CC(=O)O)CCN(CC(=O)O)CCN(CC(=O)O)CC1 ?
inactive

Could you kindly confirm the outcome this assay logged for CNNC1=NS(=O)(=O)c2cc(C#N)c(Cl)cc2S1 ?
inactive

Could you kindly confirm the outcome this assay logged for CC(C)(C)OC(=O)N1C(c2cccnc2)=CC[C@H]2C3CC=C(c4cccnc4)[C@@]3(C)CC[C@@H]21 (stereo partly drawn) ?
inactive

Could you kindly confirm the outcome this assay logged for S=C(c1c[nH]c2ccccc12)N1CCN(Cc2ccccc2)CC1 ?
inactive

Could you kindly confirm the outcome this assay logged for COc1c(O)c2c(c3cc(C(=O)N4CCc5c4c(O)c(OC)c4[nH]c(C(=O)N6CC7CC78C6=CC(=O)c6[nH]cc(C)c68)cc54)[nH]c13)CCN2C(N)=O (stereo not drawn) ?
active

Could you kindly confirm the outcome this assay logged for c1ccc(Nn2c(CCCCCCCCc3nnc(COc4ccccc4)n3Nc3ccccc3)nnc2COc2ccccc2)cc1 ?
inactive
